# Measurement Conditions: human, plasma, Half-life time
Endpoint Label: half-life (min)
Entry rule: numbers only, all in min.

Look up and report measured half-life for this entry: Ac-PSRLEEELRRRLTE-NH2 [SD14316] 646

====

# Procedure Details: Plasma stability, mouse plasma
# Measurement Conditions: mouse plasma, 37° C., timepoint 3 h
Bridge positions count the residues as written; N and C are the ends. Peptide text beside a SMILES is read from it.
Endpoint Label: Mean (compound concentration)
Please reply with the value in numeric form only.

Give Mean (compound concentration) for CC(=O)N1CCC[C@H]1C(=O)N[C@@H](CO)C(=O)N[C@@H](CCCNC(=N)N)C(=O)N[C@@H](CC(C)C)C(=O)N[C@H]1CCC(=O)NCCCC[C@@H](C(=O)N[C@@H](CCCNC(=N)N)C(=O)N[C@@H](CCCNC(=N)N)C(=O)N[C@@H](CC(C)C)C(=O)N[C@H](C(=O)N[C@@H](CCC(=O)O)C(N)=O)[C@@H](C)O)NC(=O)[C@H](CC(C)C)NC(=O)[C@H](CCC(=O)O)NC(=O)[C@H](CCC(=O)O)NC1=O [SD15806] (Ac-PSRLEEELKRRLTE-NH2; lactam 5-9) 2.553

====

Record form. Attribute: Conc. (% of T0). Fill in for each entry.
# Procedure Details: Plasma stability, human plasma
# Measurement Conditions: human plasma, 37° C., timepoint 0 h
Bridge positions count the residues as written; N and C are the ends. Square brackets hold non-standard residues; d marks the D form. Peptide text beside a SMILES is read from it.

Quote Conc. (% of T0) reported for CC(=O)N[C@@H](CO)C(=O)N[C@@H](CCCNC(=N)N)C(=O)N[C@@H](CC(C)C)C(=O)N[C@@H](CCC(=O)O)C(=O)N[C@H]1CC(=O)NCCCC[C@@H](C(=O)N[C@@H](CCCNC(=N)N)C(=O)N[C@@H](CC(C)C)C(=O)N[C@H](C(=O)N[C@@H](CCC(=O)O)C(N)=O)[C@@H](C)O)NC(=O)[C@H](CCCNC(=N)N)NC(=O)[C@H](CC(C)C)NC(=O)[C@H](CCC(=O)O)NC1=O [SD15196] (Ac-SRLEDELRKRLTE-NH2; lactam 5-9) please. 100.0 % of T0

Give recorded Conc. (% of T0). CC(=O)N1CCC[C@H]1C(=O)N[C@@H](CO)C(=O)N[C@@H](CCCNC(=N)N)C(=O)N[C@@H](CC(C)C)C(=O)N[C@@H](CCC(=O)O)C(=O)N[C@H]1CSSC[C@H](C(=O)N[C@@H](CCCNC(=N)N)C(=O)N[C@@H](CCCNC(=N)N)C(=O)N[C@@H](CC(C)C)C(=O)N[C@H](C(=O)N[C@@H](CCC(=O)O)C(N)=O)[C@@H](C)O)NC(=O)[C@H](CC(C)C)NC(=O)[C@H](CCC(=O)O)NC1=O [SD15807] (Ac-PSRLECEL[dC]RRLTE-NH2; disulfide 6-9) 100.0 % of T0

====

Would you kindly list Tube 2 (compound concentration) for each of these compounds?
# Procedure Details: Plasma stability, mouse plasma
# Measurement Conditions: mouse plasma, 37° C., timepoint 24 h
Bridge positions count the residues as written; N and C are the ends. Peptide text beside a SMILES is read from it.

// Input: CC(=O)N[C@@H](CO)C(=O)N[C@@H](CCCNC(=N)N)C(=O)N[C@@H](CC(C)C)C(=O)N[C@@H](CCC(=O)O)C(=O)N[C@H]1CCC(=O)NCCCC[C@@H](C(=O)N[C@@H](CCCNC(=N)N)C(=O)N[C@@H](CC(C)C)C(=O)N[C@H](C(=O)N[C@@H](CCC(=O)O)C(N)=O)[C@@H](C)O)NC(=O)[C@H](CCCNC(=N)N)NC(=O)[C@H](CC(C)C)NC(=O)[C@H](CCC(=O)O)NC1=O [SD15194] (Ac-SRLEEELRKRLTE-NH2; lactam 5-9) . Output its Tube 2 (compound concentration) only. 1.638

Please give the documented Tube 2 (compound concentration) of CC(=O)N[C@@H](CO)C(=O)N[C@@H](CCCNC(=N)N)C(=O)N[C@@H](CC(C)C)C(=O)N[C@@H](CCC(=O)O)C(=O)N[C@H]1CCC(=O)NCCCC[C@@H](C(=O)N[C@@H](CCCNC(=N)N)C(=O)N[C@@H](CCCNC(=N)N)C(=O)N[C@@H](CC(C)C)C(=O)N[C@H](C(=O)N[C@@H](CCC(=O)O)C(N)=O)[C@@H](C)O)NC(=O)[C@H](CC(C)C)NC(=O)[C@H](CCC(=O)O)NC1=O [SD15192] (Ac-SRLEEELKRRLTE-NH2; lactam 5-8) 0.656

Please supply the value of reported Tube 2 (compound concentration) for the item CC(=O)N[C@@H](CO)C(=O)N[C@@H](CCCNC(=N)N)C(=O)N[C@@H](CC(C)C)C(=O)N[C@@H](CCC(=O)O)C(=O)N[C@@H](CCC(=O)O)C(=O)N[C@@H](CCC(=O)O)C(=O)N[C@@H](CC(C)C)C(=O)N[C@@H](CCCNC(=N)N)C(=O)N[C@H]1CCCCNC(=O)CC[C@@H](C(N)=O)NC(=O)[C@H]([C@@H](C)O)NC(=O)[C@H](CC(C)C)NC(=O)[C@H](CCCNC(=N)N)NC1=O [SD15193] (Ac-SRLEEELRKRLTE-NH2; lactam 9-13) 1.397

Provide only the value of recorded Tube 2 (compound concentration) for CC(=O)N[C@@H](CO)C(=O)N[C@@H](CCCNC(=N)N)C(=O)N[C@@H](CC(C)C)C(=O)N[C@@H](CCC(=O)O)C(=O)N[C@H]1CC(=O)NCCCC[C@@H](C(=O)N[C@@H](CCCNC(=N)N)C(=O)N[C@@H](CC(C)C)C(=O)N[C@H](C(=O)N[C@@H](CCC(=O)O)C(N)=O)[C@@H](C)O)NC(=O)[C@H](CCCNC(=N)N)NC(=O)[C@H](CC(C)C)NC(=O)[C@H](CCC(=O)O)NC1=O [SD15196] (Ac-SRLEDELRKRLTE-NH2; lactam 5-9) 1.273
